Listed below: Ratio values for each entry.
- TARGET SYSTEM: Thioesterase GrsT homolog tycF (Brevibacillus brevis) (UniProt O30412)
- Sequence (O30412 as listed by the source): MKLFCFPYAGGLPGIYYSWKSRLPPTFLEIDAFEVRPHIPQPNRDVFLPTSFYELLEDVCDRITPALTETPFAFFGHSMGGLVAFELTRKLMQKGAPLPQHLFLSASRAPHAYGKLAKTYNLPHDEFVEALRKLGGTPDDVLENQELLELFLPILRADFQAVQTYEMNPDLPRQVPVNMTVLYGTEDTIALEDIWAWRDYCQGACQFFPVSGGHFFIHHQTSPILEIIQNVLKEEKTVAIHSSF
- PROCEDURE SUMMARY: Catalytic efficiency (Kcat/Km) was determined
- Set-up: unit not given here
Answer with the value's number alone.

* CC(=O)NCCSC(=O)[C@H](CC(C)C)NC(=O)[C@H](CCCN)NC(=O)[C@@H](NC(=O)[C@H](Cc1ccc(O)cc1)NC(=O)[C@H](CCC(N)=O)NC(=O)[C@H](CC(N)=O)NC(=O)[C@H](Cc1ccccc1)NC(=O)[C@H](Cc1ccccc1)NC(=O)[C@@H]1CCCN1C(=O)[C@H](N)Cc1ccccc1)C(C)C | 1.3
* CC(=O)NCCSC(=O)[C@H](CC(C)C)NC(=O)[C@H](CCCN)NC(=O)[C@@H](NC(=O)[C@H](Cc1ccc(O)cc1)NC(=O)[C@H](CCC(N)=O)NC(=O)[C@H](CC(N)=O)NC(=O)[C@@H](NC(=O)[C@H](Cc1ccccc1)NC(=O)[C@@H]1CCCN1C(=O)[C@H](N)Cc1ccccc1)[C@@H](C)O)C(C)C | 0.26

Please find the next molecule below.
Read off the recorded Ratio for CC(=O)NCCSC(=O)[C@H](CC(C)C)NC(=O)[C@H](CCCN)NC(=O)[C@@H](NC(=O)[C@H](Cc1ccc(O)cc1)NC(=O)[C@H](CCC(N)=O)NC(=O)[C@H](CC(N)=O)NC(=O)CNC(=O)[C@H](Cc1ccccc1)NC(=O)[C@@H]1CCCN1C(=O)[C@H](N)Cc1ccccc1)C(C)C
0.36

====

- TARGET SYSTEM: Thioesterase GrsT homolog tycF (Brevibacillus brevis)
- PROCEDURE SUMMARY: Catalytic efficiency (Kcat/Km) was determined
- Design: unit not given here
READOUT: Ratio
Answer with the value's number alone.

• CC(=O)NCCSC(=O)[C@H](CC(C)C)NC(=O)[C@H](CCCN)NC(=O)[C@@H](NC(=O)[C@H](Cc1ccc(O)cc1)NC(=O)[C@H](CCC(N)=O)NC(=O)[C@H](CC(N)=O)NC(=O)[C@H](CCC(=O)O)NC(=O)[C@H](Cc1ccccc1)NC(=O)[C@@H]1CCCN1C(=O)[C@H](N)Cc1ccccc1)C(C)C = 0.57

Quote Thioesterase GrsT homolog tycF (Brevibacillus brevis) Ratio for entry CC(=O)NCCSC(=O)[C@H](CC(C)C)NC(=O)[C@H](CCCN)NC(=O)[C@@H](NC(=O)[C@H](Cc1ccc(O)cc1)NC(=O)[C@H](CCC(N)=O)NC(=O)[C@H](CC(N)=O)NC(=O)[C@H](CCC(N)=O)NC(=O)[C@H](Cc1ccccc1)NC(=O)[C@@H]1CCCN1C(=O)[C@H](N)Cc1ccccc1)C(C)C .
0.43

Quote Thioesterase GrsT homolog tycF (Brevibacillus brevis) Ratio for entry CC(=O)NCCSC(=O)[C@H](CC(C)C)NC(=O)[C@H](CCCN)NC(=O)[C@@H](NC(=O)[C@H](Cc1ccc(O)cc1)NC(=O)[C@H](CCC(N)=O)NC(=O)[C@H](CC(N)=O)NC(=O)[C@H](CCCN=C(N)N)NC(=O)[C@H](Cc1ccccc1)NC(=O)[C@@H]1CCCN1C(=O)[C@H](N)Cc1ccccc1)C(C)C .
0.51

Quote Thioesterase GrsT homolog tycF (Brevibacillus brevis) Ratio for entry CC(=O)NCCSC(=O)[C@H](CC(C)C)NC(=O)[C@H](CCCN)NC(=O)[C@@H](NC(=O)[C@H](Cc1ccc(O)cc1)NC(=O)[C@H](CCC(N)=O)NC(=O)[C@H](CC(N)=O)NC(=O)[C@H](CC(C)C)NC(=O)[C@H](Cc1ccccc1)NC(=O)[C@@H]1CCCN1C(=O)[C@H](N)Cc1ccccc1)C(C)C .
0.28

Quote Thioesterase GrsT homolog tycF (Brevibacillus brevis) Ratio for entry CC(=O)NCCSC(=O)[C@H](CC(C)C)NC(=O)[C@H](CCCN)NC(=O)[C@@H](NC(=O)[C@H](Cc1ccc(O)cc1)NC(=O)[C@H](CCC(N)=O)NC(=O)[C@H](CC(N)=O)NC(=O)[C@H](CCCCN)NC(=O)[C@H](Cc1ccccc1)NC(=O)[C@@H]1CCCN1C(=O)[C@H](N)Cc1ccccc1)C(C)C .
0.92

Quote Thioesterase GrsT homolog tycF (Brevibacillus brevis) Ratio for entry CC(=O)NCCSC(=O)[C@H](CC(C)C)NC(=O)[C@H](CCCN)NC(=O)[C@@H](NC(=O)[C@H](Cc1ccc(O)cc1)NC(=O)[C@H](CCC(N)=O)NC(=O)[C@H](CC(N)=O)NC(=O)[C@@H](Cc1ccccc1)NC(=O)[C@H](Cc1ccccc1)NC(=O)[C@@H]1CCCN1C(=O)[C@H](N)Cc1ccccc1)C(C)C (stereo in doubt; form 1) .
4.78

Quote Thioesterase GrsT homolog tycF (Brevibacillus brevis) Ratio for entry CC(=O)NCCSC(=O)[C@H](CC(C)C)NC(=O)[C@H](CCCN)NC(=O)[C@@H](NC(=O)[C@H](Cc1ccc(O)cc1)NC(=O)[C@H](CCC(N)=O)NC(=O)[C@H](CC(N)=O)NC(=O)[C@@H]1CCCN1C(=O)[C@H](Cc1ccccc1)NC(=O)[C@@H]1CCCN1C(=O)[C@H](N)Cc1ccccc1)C(C)C .
0.11
